Listing of entries alongside the reported pIC50.
- system: Epidermal growth factor receptor (Homo sapiens, UniProt P00533)
- Sequence (P00533 whole entry): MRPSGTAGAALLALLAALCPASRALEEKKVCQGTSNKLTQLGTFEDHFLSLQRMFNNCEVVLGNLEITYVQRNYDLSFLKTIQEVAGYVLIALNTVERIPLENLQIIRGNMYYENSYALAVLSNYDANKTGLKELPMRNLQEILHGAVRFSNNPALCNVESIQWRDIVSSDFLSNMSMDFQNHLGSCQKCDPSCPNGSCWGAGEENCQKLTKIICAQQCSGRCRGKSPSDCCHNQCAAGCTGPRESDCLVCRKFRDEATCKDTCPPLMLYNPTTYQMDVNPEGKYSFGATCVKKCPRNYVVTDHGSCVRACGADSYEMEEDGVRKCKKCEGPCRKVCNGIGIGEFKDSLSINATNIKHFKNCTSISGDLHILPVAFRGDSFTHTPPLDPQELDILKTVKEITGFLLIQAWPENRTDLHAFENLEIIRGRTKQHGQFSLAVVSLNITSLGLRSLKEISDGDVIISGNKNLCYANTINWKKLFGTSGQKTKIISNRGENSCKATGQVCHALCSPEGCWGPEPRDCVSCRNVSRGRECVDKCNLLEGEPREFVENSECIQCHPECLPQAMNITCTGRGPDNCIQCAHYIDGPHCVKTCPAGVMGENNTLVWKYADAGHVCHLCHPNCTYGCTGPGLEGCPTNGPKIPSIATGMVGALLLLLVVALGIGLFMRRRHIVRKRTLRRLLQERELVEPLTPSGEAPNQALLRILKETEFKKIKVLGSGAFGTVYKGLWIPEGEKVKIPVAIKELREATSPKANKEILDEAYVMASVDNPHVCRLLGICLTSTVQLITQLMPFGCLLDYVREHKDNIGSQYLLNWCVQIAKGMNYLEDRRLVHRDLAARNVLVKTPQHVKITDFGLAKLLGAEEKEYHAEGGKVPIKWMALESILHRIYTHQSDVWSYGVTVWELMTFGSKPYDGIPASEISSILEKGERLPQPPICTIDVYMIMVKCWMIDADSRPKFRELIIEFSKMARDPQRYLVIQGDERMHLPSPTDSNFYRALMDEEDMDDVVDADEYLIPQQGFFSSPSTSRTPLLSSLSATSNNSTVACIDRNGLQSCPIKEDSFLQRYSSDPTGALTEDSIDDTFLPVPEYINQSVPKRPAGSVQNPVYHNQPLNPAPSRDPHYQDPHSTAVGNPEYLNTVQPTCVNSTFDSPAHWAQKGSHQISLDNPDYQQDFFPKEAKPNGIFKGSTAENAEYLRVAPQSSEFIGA
pIC50: −log10 of the molar value.
measured.attribute: pIC50

[[record]]
substance_smiles = "OCCOc1n[nH]c2ncnc(Nc3ccc(OCc4ccccn4)c(Cl)c3)c12"
measured_attribute = "pIC50"
measurement = 7.80

[[record]]
substance_smiles = "OC1CCN(CCOc2n[nH]c3ncnc(Nc4ccc(OCc5ccccn5)c(Cl)c4)c23)CC1"
measured_attribute = "pIC50"
measurement = 7.89

[[record]]
substance_smiles = "Clc1cc(Nc2ncnc3[nH]nc(OCCCN4CCOCC4)c23)ccc1OCc1ccccn1"
measured_attribute = "pIC50"
measurement = 7.80


The reported measurements were obtained from ChEMBL document CHEMBL1143160.
